Target: Non-receptor tyrosine-protein kinase TYK2 (Homo sapiens)
Sequence (P29597 whole entry): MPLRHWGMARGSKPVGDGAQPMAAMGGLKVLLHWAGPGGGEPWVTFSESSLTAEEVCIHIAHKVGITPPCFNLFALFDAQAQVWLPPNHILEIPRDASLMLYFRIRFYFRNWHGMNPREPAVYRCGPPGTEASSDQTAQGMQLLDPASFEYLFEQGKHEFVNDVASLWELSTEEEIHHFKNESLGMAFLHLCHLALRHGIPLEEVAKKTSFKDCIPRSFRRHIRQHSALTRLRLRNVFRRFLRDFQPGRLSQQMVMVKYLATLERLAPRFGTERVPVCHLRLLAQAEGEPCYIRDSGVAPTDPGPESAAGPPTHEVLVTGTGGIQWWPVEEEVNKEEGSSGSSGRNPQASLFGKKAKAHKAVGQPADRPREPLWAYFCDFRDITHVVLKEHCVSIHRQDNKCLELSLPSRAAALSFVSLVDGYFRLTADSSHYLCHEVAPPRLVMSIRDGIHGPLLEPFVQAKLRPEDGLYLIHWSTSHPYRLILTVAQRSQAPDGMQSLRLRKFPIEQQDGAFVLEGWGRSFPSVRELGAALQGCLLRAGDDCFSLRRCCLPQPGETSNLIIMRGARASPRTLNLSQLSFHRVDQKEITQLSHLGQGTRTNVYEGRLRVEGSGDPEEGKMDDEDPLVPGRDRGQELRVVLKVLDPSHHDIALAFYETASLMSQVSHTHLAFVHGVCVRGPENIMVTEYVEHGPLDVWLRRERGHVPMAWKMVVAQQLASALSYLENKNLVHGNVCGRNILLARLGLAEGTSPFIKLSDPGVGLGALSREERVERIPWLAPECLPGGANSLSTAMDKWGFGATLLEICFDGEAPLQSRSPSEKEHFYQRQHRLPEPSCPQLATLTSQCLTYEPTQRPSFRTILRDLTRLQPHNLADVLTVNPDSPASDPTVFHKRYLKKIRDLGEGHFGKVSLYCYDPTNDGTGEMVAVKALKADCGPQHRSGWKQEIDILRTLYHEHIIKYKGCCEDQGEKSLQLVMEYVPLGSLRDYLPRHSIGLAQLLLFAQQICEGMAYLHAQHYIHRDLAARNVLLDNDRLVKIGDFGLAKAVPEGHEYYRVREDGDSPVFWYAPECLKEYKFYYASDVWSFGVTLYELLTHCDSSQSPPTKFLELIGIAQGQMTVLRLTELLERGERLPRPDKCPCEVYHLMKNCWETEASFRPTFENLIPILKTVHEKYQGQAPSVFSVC
Assay: Inhibition of TYK2 (unknown origin)
Let's look at some compounds and their measured IC50.
Hey, just the number and the unit after it is fine.

smiles input: N#C[C@]1(C2CC2)C(=O)N2C[C@H]1COCC(=O)NCCc1cccc(n1)Nc1cc2ccn1
experimental target: Non-receptor tyrosine-protein kinase TYK2 (Homo sapiens)
IC50: 23 nM

Input N#C[C@]1(C2CC2)C(=O)N2C[C@H]1COCCCCOCc1cccc(n1)Nc1cc2ccn1 , output reported IC50.
4.9 nM

Input N#C[C@]1(C2CC2)C(=O)N2C[C@H]1COC/C=C/COCc1cccc(n1)Nc1cc2ccn1 , output reported IC50.
12 nM

Input CN(C)C(=O)c1ccc(Nc2cc(N3CC[C@@](C#N)(C4CC4)C3=O)ccn2)nc1 , output reported IC50.
1.1 nM
